Test system: Mycobacterium tuberculosis
Assay Details: Antimycobacterial activity against Mycobacterium tuberculosis H37Rv by agar diffusion method
Format: functional
Quantity Measured: log10(MIC) (log10 of the value in µg/mL)
Reminder: these figures are log10 of reported MIC, in µg/mL before transformation.

Query: Which log10(MIC) is reported for this compound? COc1ccc2c(CS(=O)(=O)C3CCCCC3)cc(=O)oc2c1OC
Reply: 1.10

Query: Which log10(MIC) is reported for this compound? O=c1cc(CS(=O)(=O)c2ccccc2)c2ccccc2o1
Reply: 0.80

Query: Which log10(MIC) is reported for this compound? COc1ccc2c(CS(=O)(=O)c3nc4ccccc4o3)cc(=O)oc2c1
Reply: 0.80

Query: Which log10(MIC) is reported for this compound? CC[C@@H](CO)NCCN[C@@H](CC)CO
Reply: 0.19

Query: Which log10(MIC) is reported for this compound? O=c1cc(CS(=O)(=O)C2CCCCC2)c2ccccc2o1
Reply: 0.80

Query: Which log10(MIC) is reported for this compound? O=c1cc(CS(=O)(=O)c2nc3ccccc3o2)c2ccccc2o1
Reply: 0.88

Query: Which log10(MIC) is reported for this compound? Cc1ccc(S(=O)(=O)Cc2cc(=O)oc3ccccc23)cc1
Reply: 1.10

Query: Which log10(MIC) is reported for this compound? NC(=O)c1cnccn1 [PYRAZINAMIDE]
Reply: 0.80

Query: Which log10(MIC) is reported for this compound? COc1ccc2c(CS(=O)(=O)c3ccc(Cl)cc3)cc(=O)oc2c1
Reply: 0.80

Query: Which log10(MIC) is reported for this compound? COc1ccc2c(CS(=O)(=O)C3CCCCC3)cc(=O)oc2c1
Reply: 1.10

Query: Which log10(MIC) is reported for this compound? COc1ccc2c(CS(=O)(=O)c3nc4ccccc4o3)cc(=O)oc2c1OC
Reply: -0.11

Query: Which log10(MIC) is reported for this compound? COc1ccc2c(CS(=O)(=O)c3ccc(Cl)cc3)cc(=O)oc2c1OC
Reply: 0.19

Query: Which log10(MIC) is reported for this compound? O=c1cc(CS(=O)(=O)c2ccc(Cl)cc2)c2ccccc2o1
Reply: 1.10

Query: Which log10(MIC) is reported for this compound? O=c1cc(CS(=O)(=O)c2nc3ccccc3[nH]2)c2ccccc2o1
Reply: 0.21

Query: Which log10(MIC) is reported for this compound? COc1ccc2c(CS(=O)(=O)c3nc4ccccc4[nH]3)cc(=O)oc2c1OC
Reply: 0.80

Query: Which log10(MIC) is reported for this compound? COc1ccc2c(CS(=O)(=O)c3nc4ccccc4[nH]3)cc(=O)oc2c1
Reply: 0.80

Query: Which log10(MIC) is reported for this compound? COc1ccc2c(CS(=O)(=O)c3ccc(C)cc3)cc(=O)oc2c1
Reply: 1.10

Query: Which log10(MIC) is reported for this compound? COc1ccc2c(CS(=O)(=O)c3ccc(C)cc3)cc(=O)oc2c1OC
Reply: 0.50

Query: Which log10(MIC) is reported for this compound? COc1ccc2c(CS(=O)(=O)c3ccccc3)cc(=O)oc2c1OC
Reply: 0.80

Query: Which log10(MIC) is reported for this compound? COc1ccc2c(CS(=O)(=O)c3ccccc3)cc(=O)oc2c1
Reply: 1.10

Every entry's value here was drawn from ChEMBL document CHEMBL2046407.
